Values were extracted from ChEMBL document CHEMBL1149347.

molecular target: Fatty acid synthase (Homo sapiens); test: Inhibition of FAS
Sequence (P49327 whole entry): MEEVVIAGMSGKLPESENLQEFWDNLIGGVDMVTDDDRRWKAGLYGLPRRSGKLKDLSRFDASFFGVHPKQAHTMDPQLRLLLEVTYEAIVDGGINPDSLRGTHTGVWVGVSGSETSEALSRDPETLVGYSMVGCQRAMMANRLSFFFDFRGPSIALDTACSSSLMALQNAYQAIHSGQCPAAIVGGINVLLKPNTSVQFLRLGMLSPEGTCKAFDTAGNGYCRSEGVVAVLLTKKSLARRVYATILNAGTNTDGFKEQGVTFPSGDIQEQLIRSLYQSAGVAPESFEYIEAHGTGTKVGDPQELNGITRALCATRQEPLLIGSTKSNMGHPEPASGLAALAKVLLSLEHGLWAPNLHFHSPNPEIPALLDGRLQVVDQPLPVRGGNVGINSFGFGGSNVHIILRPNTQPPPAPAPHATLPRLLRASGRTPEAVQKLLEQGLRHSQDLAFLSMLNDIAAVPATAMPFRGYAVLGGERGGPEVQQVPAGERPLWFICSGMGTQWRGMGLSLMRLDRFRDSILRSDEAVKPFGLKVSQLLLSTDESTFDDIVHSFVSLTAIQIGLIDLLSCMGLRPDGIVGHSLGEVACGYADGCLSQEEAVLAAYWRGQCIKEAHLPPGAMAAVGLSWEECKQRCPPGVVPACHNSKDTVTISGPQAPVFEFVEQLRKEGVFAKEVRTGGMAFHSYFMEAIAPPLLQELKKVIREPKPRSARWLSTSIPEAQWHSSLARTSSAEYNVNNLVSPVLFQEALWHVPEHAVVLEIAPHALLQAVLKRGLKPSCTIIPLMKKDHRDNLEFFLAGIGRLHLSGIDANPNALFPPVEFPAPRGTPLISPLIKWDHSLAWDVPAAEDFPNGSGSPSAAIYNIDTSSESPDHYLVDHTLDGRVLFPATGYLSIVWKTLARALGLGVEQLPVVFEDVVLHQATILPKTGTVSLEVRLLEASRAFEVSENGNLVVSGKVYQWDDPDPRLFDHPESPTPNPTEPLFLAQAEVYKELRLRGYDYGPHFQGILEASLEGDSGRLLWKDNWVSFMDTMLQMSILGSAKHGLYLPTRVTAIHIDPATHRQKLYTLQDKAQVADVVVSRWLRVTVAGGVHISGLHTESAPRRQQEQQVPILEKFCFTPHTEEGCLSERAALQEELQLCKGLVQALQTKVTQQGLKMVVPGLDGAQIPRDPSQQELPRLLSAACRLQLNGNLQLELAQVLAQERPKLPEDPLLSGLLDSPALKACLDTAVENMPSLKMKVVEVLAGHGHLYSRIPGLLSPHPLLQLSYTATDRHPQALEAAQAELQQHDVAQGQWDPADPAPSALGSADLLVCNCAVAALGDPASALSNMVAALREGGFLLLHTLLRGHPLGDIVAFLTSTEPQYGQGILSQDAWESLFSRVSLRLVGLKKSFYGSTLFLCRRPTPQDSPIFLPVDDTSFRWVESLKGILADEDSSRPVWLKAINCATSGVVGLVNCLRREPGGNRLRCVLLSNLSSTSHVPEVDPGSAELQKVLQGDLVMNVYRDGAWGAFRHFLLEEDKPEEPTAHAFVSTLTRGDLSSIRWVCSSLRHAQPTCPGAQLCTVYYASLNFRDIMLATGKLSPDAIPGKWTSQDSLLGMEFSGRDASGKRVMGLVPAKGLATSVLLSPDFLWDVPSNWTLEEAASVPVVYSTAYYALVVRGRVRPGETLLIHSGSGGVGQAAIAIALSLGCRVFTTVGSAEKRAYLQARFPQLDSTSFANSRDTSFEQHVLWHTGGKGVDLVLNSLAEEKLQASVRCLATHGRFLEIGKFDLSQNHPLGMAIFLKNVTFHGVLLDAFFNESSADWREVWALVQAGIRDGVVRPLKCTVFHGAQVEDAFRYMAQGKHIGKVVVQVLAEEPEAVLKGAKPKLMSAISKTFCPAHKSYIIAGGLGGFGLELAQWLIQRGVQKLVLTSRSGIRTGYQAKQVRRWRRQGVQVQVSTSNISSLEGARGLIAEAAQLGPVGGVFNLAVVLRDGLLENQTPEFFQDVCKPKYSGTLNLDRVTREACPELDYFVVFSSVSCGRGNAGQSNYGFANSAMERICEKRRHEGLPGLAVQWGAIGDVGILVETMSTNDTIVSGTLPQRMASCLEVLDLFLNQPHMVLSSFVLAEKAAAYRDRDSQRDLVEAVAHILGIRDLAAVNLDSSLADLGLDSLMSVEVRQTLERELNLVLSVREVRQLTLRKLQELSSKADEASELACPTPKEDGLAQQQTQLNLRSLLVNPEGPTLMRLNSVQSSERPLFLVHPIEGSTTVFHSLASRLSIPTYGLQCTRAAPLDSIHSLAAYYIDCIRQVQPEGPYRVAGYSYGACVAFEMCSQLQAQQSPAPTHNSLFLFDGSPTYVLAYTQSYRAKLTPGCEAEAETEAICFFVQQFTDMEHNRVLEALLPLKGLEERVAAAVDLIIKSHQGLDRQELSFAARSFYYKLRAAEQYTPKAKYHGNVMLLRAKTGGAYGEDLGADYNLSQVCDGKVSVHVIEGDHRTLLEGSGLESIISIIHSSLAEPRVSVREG
In this scheme, each record receives a class according to its IC50; the ranges are low band: < 30 µM; middle band: ≥ 30 µM and < 50 µM; high band: ≥ 50 µM

CCC(=O)C1=C(O)C(C)(C)C(O)=C(CC2=C(O)C(C)(C)C(O)=C(C(=O)CC)C2=O)C1=O	high band
CCCC(=O)c1c(O)c(CC2=C(O)C(C)(C)C(O)=C(C(C)=O)C2=O)c(O)c(CC2=C(O)C(C)(C)C(O)=C(C(=O)CC)C2=O)c1O	middle band
O=c1cc(-c2ccc(O)c(O)c2)oc2cc(O)cc(O)c12	high band
CCCC(=O)C1=C(O)C(C)C(O)=C(CC2=C(O)C(C)(C)C(O)=C(C(=O)CC)C2=O)C1=O (configuration not stated)	low band
CCC(=O)C1=C(O)C(C)(C)C(O)=C(CC2=C(O)C(C)(C)C(O)=C(C(C)=O)C2=O)C1=O	high band
C/C=C/C/C=C/CCC(=O)[C@H]1O[C@H]1C(N)=O	low band
CCCC(=O)C1=C(OC)C(C)C(O)=C(CC2=C(O)C(C)(C)C(O)=C(C(=O)CCC)C2=O)C1=O (configuration not stated)	middle band
Oc1cc(O)c2c(c1)O[C@H](c1ccc(O)c(O)c1)[C@H](O)C2 [(-)-EPICATECHIN]	high band
O=c1c(O)c(-c2ccccc2)oc2ccccc12	high band
CCCC(=O)c1c(O)c(C)c(O)c(Cc2c(O)c(C)c(O)c(C(=O)CCC)c2O)c1O	low band
